Values were extracted from patent EP3212201B1.

Biological target: MAPK1 (ERK2) (Homo sapiens)
Sequence (P28482 whole entry, species assumed): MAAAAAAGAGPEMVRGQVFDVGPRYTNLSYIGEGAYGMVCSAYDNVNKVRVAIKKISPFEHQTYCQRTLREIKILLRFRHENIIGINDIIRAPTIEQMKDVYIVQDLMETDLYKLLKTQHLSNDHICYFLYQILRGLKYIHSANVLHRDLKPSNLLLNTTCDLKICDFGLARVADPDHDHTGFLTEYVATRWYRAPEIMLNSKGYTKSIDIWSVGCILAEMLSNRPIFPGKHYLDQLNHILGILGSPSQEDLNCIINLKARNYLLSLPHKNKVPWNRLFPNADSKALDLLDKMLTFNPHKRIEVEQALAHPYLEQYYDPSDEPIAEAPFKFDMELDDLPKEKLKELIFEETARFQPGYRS
Assay: FRET-based coupled-enzyme protein kinase inhibition assay
Format: biochemical
Settings: compound at 10 µM, 1% DMSO
Protocol: A biochemical assay was then performed in order to measure the protein kinase inhibition. It employed a fluorescence-based coupled-enzyme format and was based on the differential sensitivity of phosphorylated and non-phosphorylated peptides to proteolytic cleavage. […] A significant benefit of this ratiometric method for quantitating reaction progress is the elimination of well-to-well variations in FRET-peptide concentration and signal intensities. […]
Assay Metric: inhibition at 10 µM (%)

Nc1ncnc2c1ncn2[C@@H]1O[C@H](COC(=O)N2CCC(Cc3ccc(F)cc3)C2)[C@@H](O)[C@H]1O (stereo partly shown) :: 9
C[C@@H](NC(=O)OC[C@H]1O[C@@H](n2cnc3c(N)ncnc32)[C@H](O)[C@@H]1O)c1ccc(Cl)cc1 :: 8
Nc1ncnc2c1ncn2[C@@H]1O[C@H](COC(=O)NCCN2CCCC2=O)[C@@H](O)[C@H]1O :: 9
Nc1ncnc2c1ncn2[C@@H]1O[C@H](COC(=O)N[C@@H]2CCN(Cc3ccccc3)C2)[C@@H](O)[C@H]1O :: 8
